Target: Solute carrier organic anion transporter family member 1B1 (Homo sapiens, UniProt Q9Y6L6)
Sequence (Q9Y6L6 whole entry): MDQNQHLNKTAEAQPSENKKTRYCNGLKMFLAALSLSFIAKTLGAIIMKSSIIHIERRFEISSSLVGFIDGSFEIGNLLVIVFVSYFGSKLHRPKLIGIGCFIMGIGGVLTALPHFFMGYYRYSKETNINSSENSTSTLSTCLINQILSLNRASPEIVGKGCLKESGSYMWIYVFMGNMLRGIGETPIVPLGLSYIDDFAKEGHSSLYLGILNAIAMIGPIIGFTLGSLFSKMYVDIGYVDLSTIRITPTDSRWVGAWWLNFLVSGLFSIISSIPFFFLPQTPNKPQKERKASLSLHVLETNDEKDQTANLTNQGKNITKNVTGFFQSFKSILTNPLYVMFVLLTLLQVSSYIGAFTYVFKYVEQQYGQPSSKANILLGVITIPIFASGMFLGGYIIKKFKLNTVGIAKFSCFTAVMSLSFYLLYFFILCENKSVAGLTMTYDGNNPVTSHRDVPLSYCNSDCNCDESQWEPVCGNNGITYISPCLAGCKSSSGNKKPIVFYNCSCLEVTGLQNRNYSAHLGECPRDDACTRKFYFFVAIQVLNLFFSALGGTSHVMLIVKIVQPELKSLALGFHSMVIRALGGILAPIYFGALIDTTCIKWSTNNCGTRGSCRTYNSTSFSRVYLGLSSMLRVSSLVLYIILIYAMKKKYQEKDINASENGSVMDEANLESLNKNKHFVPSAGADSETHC
Conditions: chinese hamster, cho, 10 µM
Form field: residual activity (one value per entry).

[
  {
    "molecule": "CC(=O)O[C@@H]1CC(=O)[C@]2(C)[C@H]3CC[C@@]4(C)[C@H](c5ccoc5)OC(=O)[C@H]5O[C@]54[C@]3(C)C(=O)C[C@H]2C1(C)C",
    "units": "%",
    "residual activity": 80.54
  },
  {
    "molecule": "CN1CCN(C2=Nc3ccccc3Oc3ccc(Cl)cc32)CC1.O=C(O)CCC(=O)O [LOXAPINE SUCCINATE]",
    "units": "%",
    "residual activity": 140.7
  },
  {
    "molecule": "COc1ccc2c(C)cc(=O)oc2c1 [HYMECROMONE METHYL ETHER]",
    "units": "%",
    "residual activity": 109.2
  }
]

###

Target: Solute carrier organic anion transporter family member 1B1 (Homo sapiens)
Details: chinese hamster, cho, 10 µM
attribute_measured: residual activity (%)

[
  {
    "compound": "COc1ccc(-c2cc(=O)c3cc(OC)ccc3o2)cc1",
    "recorded_number": 34.44
  },
  {
    "compound": "O=C(CC[N+](=O)[O-])OC[C@H]1O[C@@H](O)[C@H](OC(=O)CC[N+](=O)[O-])[C@@H](OC(=O)CC[N+](=O)[O-])[C@@H]1OC(=O)CC[N+](=O)[O-]",
    "recorded_number": 80.29
  },
  {
    "compound": "CCOC(=O)n1ccn(C)c1=S",
    "recorded_number": 114.4
  },
  {
    "compound": "CC(C)c1ccc2c(c1)CC[C@H]1[C@](C)(C(N)=O)CCC[C@]21C [DEHYDROABIETAMIDE]",
    "recorded_number": 81.19
  },
  {
    "compound": "CO[C@@]1(NC(=O)Cc2cccs2)C(=O)N2C(C(=O)[O-])=C(COC(N)=O)CS[C@@H]21.[Na+] [CEFOXITIN SODIUM]",
    "recorded_number": 68.58
  },
  {
    "compound": "CCOc1cccc(C(=O)c2ccc(O)c(O)c2O)c1",
    "recorded_number": 134.3
  },
  {
    "compound": "CN1CCN(C2=Nc3cc(Cl)ccc3Nc3ccccc32)CC1",
    "recorded_number": 86.29
  },
  {
    "compound": "NC(=O)NCC(N)C(=O)O (centres undefined)",
    "recorded_number": 118.1
  },
  {
    "compound": "CC(C)C(=O)Nc1ccc([N+](=O)[O-])c(C(F)(F)F)c1 [FLUTAMIDE]",
    "recorded_number": 130.9
  },
  {
    "compound": "Cc1cc(CC(=O)[O-])n(C)c1C(=O)c1ccc(Cl)cc1.O.O.[Na+] [ZOMEPIRAC SODIUM]",
    "recorded_number": 132.9
  },
  {
    "compound": "NC(=O)c1cccc(N)c1 [3-AMINOBENZAMIDE]",
    "recorded_number": 106.1
  },
  {
    "compound": "COC(=O)C1=CO[C@@H](O[C@@H]2O[C@H](CO)[C@@H](O)[C@H](O)[C@H]2O)[C@@H]2[C@@H](C)[C@@H](O)C[C@H]12",
    "recorded_number": 98.87
  },
  {
    "compound": "O=C(O)CCNC(=O)c1ccccc1",
    "recorded_number": 116.1
  },
  {
    "compound": "CC(C(=O)O)c1ccc(C(=O)c2cccs2)cc1 (centres undefined)",
    "recorded_number": 108.5
  }
]
